Molecular target: Tyrosine-protein phosphatase non-receptor type 1 (Mus musculus) (UniProt P35821)
Assay: In vitro inhibitory activity against PTP1B at 100 uM 10 min incubation
Measurement label: inhibition

Examples with answers:
1. N#CCOc1ccc(/C(O)=C/C(=O)c2ccccc2)c(O)c1 No inhibition
2. COc1ccc(C(=O)Oc2cc3occc3cc2C(C)=O)cc1OC No inhibition
3. CC(=O)c1cc2ccoc2cc1O 19.1%
4. N#CCOc1ccc(/C(O)=C/C(=O)c2ccc(F)cc2)c(O)c1 No inhibition
5. CC(=O)c1ccc(OCC#N)cc1OC(=O)c1ccc(F)cc1 No inhibition
6. CC(=O)c1ccc(OCC#N)cc1O 22.4%
7. CC(=O)c1ccc2occc2c1OC(=O)c1ccc(Cl)c(Cl)c1 54.1%
8. CC(=O)c1ccc2occc2c1OC(=O)c1ccccc1 43.2%

### Prompt What value of inhibition has been reported for the following compound? `C=CCOc1ccc(C(C)=O)c(O)c1`
### Response No inhibition

### Prompt What value of inhibition has been reported for the following compound? `COc1cccc(C(=O)Oc2cc3occc3cc2C(C)=O)c1`
### Response 8.1%

### Prompt What value of inhibition has been reported for the following compound? `CC(=O)c1cc2ccoc2cc1OC(=O)c1ccccc1`
### Response No inhibition

### Prompt What value of inhibition has been reported for the following compound? `CC(=O)c1ccc(OCCc2ccccc2)cc1OC(=O)c1ccc(F)cc1`
### Response No inhibition

---

Molecular target: Tyrosine-protein phosphatase non-receptor type 1 (Mus musculus) (UniProt P35821)
Test: In vitro inhibitory activity against PTP1B at 100 uM 10 min incubation
Measurement label: inhibition

Examples with answers:
Compound	inhibition
O=C(/C=C(\O)c1ccc(OCCc2ccccc2)cc1O)c1ccc(F)cc1	No inhibition
COc1ccc(C(=O)Oc2cc3occc3cc2C(C)=O)cc1	13.5%
CC(=O)c1ccc(OCC2CO2)cc1O (stereo not given)	22.4%
O=C(/C=C(\O)c1ccc2occc2c1O)c1ccc(C(F)(F)F)cc1	No inhibition

### Prompt What value of inhibition has been reported for the following compound? `CC(=O)c1ccc(OCCc2ccccc2)cc1O`
### Response 38.6%

### Prompt What value of inhibition has been reported for the following compound? `CC(=O)c1ccc2occc2c1OC(=O)c1ccc(C(F)(F)F)cc1`
### Response 32.4%

### Prompt What value of inhibition has been reported for the following compound? `CC(=O)c1ccc2occc2c1O`
### Response No inhibition

---

Provide the reported inhibition of each item.
Molecular target: Tyrosine-protein phosphatase non-receptor type 1 (Mus musculus) (UniProt P35821)
Sequence (whole entry): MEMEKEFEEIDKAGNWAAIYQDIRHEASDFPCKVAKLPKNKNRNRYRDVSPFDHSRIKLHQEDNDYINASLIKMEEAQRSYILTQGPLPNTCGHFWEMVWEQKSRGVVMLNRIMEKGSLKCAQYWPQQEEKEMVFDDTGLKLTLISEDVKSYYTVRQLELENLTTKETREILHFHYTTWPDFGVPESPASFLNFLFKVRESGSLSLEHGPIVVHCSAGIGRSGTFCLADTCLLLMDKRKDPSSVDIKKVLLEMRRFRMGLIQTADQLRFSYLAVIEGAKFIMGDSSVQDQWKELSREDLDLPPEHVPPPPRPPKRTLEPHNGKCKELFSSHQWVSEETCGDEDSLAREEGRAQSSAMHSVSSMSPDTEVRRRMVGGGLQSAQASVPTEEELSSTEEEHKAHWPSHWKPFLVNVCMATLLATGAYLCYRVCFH
Test: In vitro inhibitory activity against PTP1B at 100 uM 10 min incubation

### Prompt What value of inhibition has been reported for the following molecule? `CC(=O)c1cc2ccoc2cc1OC(=O)c1ccc2c(c1)OCO2`
### Response 34%

### Prompt What value of inhibition has been reported for the following molecule? `CC(=O)c1ccc(OCC#N)cc1OC(=O)c1ccccc1`
### Response 12.8%
